ASSAY_SYSTEM: IRAK4 (Homo sapiens (Human))
Sequence (Q9NWZ3 whole entry): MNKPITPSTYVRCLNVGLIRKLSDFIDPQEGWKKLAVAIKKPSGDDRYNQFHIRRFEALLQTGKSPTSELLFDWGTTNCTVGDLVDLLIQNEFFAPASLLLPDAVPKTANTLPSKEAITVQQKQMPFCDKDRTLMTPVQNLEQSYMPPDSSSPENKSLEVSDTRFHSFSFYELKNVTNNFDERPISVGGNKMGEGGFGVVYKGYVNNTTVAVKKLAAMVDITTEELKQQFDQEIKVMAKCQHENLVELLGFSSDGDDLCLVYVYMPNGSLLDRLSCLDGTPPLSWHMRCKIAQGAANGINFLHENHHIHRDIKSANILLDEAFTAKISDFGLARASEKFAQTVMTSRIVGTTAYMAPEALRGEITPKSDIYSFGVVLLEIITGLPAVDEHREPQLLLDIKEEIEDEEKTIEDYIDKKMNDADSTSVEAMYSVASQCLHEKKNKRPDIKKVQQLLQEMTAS
# IC50 per entry

Illustrative cases are given below, each with its answer.
Cn1cc(-c2cccc(-c3ncc(-c4ccn(C)n4)c(NC[C@@H](O)CO)n3)c2)cn1
100 to 1000 nM
Cn1cc(-c2cccc(-c3ncc(-c4cnn(C)c4)c(N[C@H]4C[C@H](N)C4)n3)c2)cn1
100 to 1000 nM

Prompt: Request: IC50, test system IRAK4 (Homo sapiens (Human)), entry Cn1cc(-c2cccc(-c3ncc(-c4ccn(C)n4)c(NC4CCC5CNCC54)n3)c2)cn1 (stereo not shown)
Response: 100 to 1000 nM

Prompt: Request: IC50, test system IRAK4 (Homo sapiens (Human)), entry Cc1nnc(-c2cnc(-c3cccc(-c4cnn(C)c4)c3)nc2NCC(O)C(F)(F)F)s1 (stereo not shown)
Response: < 100 nM

---

ASSAY_SYSTEM: IRAK1 (His-TEV-IRAK1 (194-712)) (Homo sapiens (Human))
Sequence (P51617 194-712): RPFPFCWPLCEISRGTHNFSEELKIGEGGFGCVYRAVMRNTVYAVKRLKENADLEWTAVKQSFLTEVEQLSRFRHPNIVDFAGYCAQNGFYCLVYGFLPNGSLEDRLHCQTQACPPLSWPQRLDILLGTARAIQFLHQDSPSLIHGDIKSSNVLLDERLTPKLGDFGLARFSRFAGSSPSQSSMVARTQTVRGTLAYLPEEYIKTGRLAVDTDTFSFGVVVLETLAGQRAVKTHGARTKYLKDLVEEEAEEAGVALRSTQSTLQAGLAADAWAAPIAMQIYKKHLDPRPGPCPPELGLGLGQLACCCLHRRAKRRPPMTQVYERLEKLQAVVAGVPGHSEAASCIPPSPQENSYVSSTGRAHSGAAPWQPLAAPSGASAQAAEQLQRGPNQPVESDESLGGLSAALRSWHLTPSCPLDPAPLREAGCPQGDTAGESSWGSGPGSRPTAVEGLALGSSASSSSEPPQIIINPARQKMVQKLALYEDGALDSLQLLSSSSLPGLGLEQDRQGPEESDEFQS
PROTOCOL_NOTES: IRAK1 enzymatic assay
Assay type: biochemical
pIC50: −log10 of the molar value.
# pIC50 per entry

Prompt: Param item = Cn1cc(-c2cccc(-c3ncc(-c4cnn(C)c4)c(N4CC5CNCC5C4)n3)c2)cn1 (stereo not shown) ; retrieve measured pIC50.
Response: < 5.30

Prompt: Param item = CC(=O)N[C@@H]1CCN(c2nc(-c3cccc(-c4cnn(C)c4)c3)ncc2-c2cnn(C)c2)C1 ; retrieve measured pIC50.
Response: < 5.30

Prompt: Param item = Cn1cc(-c2cccc(-c3ncc(-c4cnn(C)c4)c(NC4CCS(=O)(=O)CC4)n3)c2)cn1 ; retrieve measured pIC50.
Response: 6.00 to 7.00

Prompt: Param item = Cn1cc(-c2cccc(-c3ncc(-c4cnn(C)c4)c(NCCNS(C)(=O)=O)n3)c2)cn1 ; retrieve measured pIC50.
Response: 6.00 to 7.00

Prompt: Param item = Cn1cc(-c2cccc(-c3ncc(-c4cnn(C)c4)c(NC4CCOCC4)n3)c2)cn1 ; retrieve measured pIC50.
Response: 6.00 to 7.00

Prompt: Param item = Cc1nnc(-c2cnc(-c3cccc(-c4cnn(C)c4)c3)nc2N[C@H]2CC[C@H](NS(C)(=O)=O)CC2)s1 ; retrieve measured pIC50.
Response: > 7.00

Prompt: Param item = Cn1cc(-c2cccc(-c3ncc(-c4cnn(C)c4)c(NC4CCC(CNS(C)(=O)=O)CC4)n3)c2)cn1 (stereo not shown) ; retrieve measured pIC50.
Response: 5.30 to 6.00

---

ASSAY_SYSTEM: IRAK4 (Homo sapiens (Human))
PROTOCOL_NOTES: IRAK4 enzymatic assay
Format: biochemical
Description: IRAK4 is a human purified recombinant enzyme ([…]. IRAK4 hydrolyses ATP, autophosphorylates and phosphorylates a Serine/Threonine generic peptidic substrate (STK: 61ST1BLC from CisBio International based in Bagnols/Cèze FR). […] Kinase reaction was stopped by addition of EDTA. Supernatant was discarded, plates were washed three times with 150 mM NaCl and radioactivity was then measured in a Microbeta Trilux reader.
# IC50 per entry

Illustrative cases are given below, each with its answer.
Cn1cc(-c2cccc(-c3ncc(-c4ccn(C)n4)c(NC4CC4)n3)c2)cn1 [Example 29]
100 to 1000 nM
Cn1cc(-c2cccc(-c3ncc(-c4cnn(C)c4)c(NCC4[C@H]5CN(S(C)(=O)=O)C[C@@H]45)n3)c2)cn1 (stereo partly shown) [Example 173]
100 to 1000 nM
Cn1cc(-c2cccc(-c3ncc(-c4cnn(C)c4)c(NC4CCC(O)C4)n3)c2)cn1 (racemic) [Example 167]
< 100 nM
Cn1cc(-c2cccc(-c3ncc(-c4ccn(C)n4)c(NC4CCOC4)n3)c2)cn1 (stereo not shown) [Example 119]
100 to 1000 nM

Prompt: Param item = Cn1cc(-c2cccc(-c3cc(C(F)(F)F)c(-c4cnn(C5CCOCC5)c4)cn3)c2)cn1 [Example 23] ; retrieve measured IC50.
Response: 1000 to 5000 nM

Prompt: Param item = Cn1cc(-c2cccc(-c3ncc(-c4ccn(C)n4)c(NC4(CO)COC4)n3)c2)cn1 [Example 93] ; retrieve measured IC50.
Response: < 100 nM

Prompt: Param item = Cn1cc(-c2cccc(-c3ncc(-c4cnn(C)c4)c(NCCC4CCCCN4S(C)(=O)=O)n3)c2)cn1 (stereo not shown) [Example 259] ; retrieve measured IC50.
Response: 100 to 1000 nM

Prompt: Param item = Cn1cc(-c2cccc(-c3ncc(-c4cnn(C)c4)c(NCC4CNCCO4)n3)c2)cn1 (stereo not shown) [Example 59] ; retrieve measured IC50.
Response: 100 to 1000 nM

Prompt: Param item = Cn1cc(-c2cccc(-c3ncc(-c4cnn(C)c4)c(NC45CC(NS(C)(=O)=O)(C4)C5)n3)c2)cn1 [Example 270] ; retrieve measured IC50.
Response: < 100 nM

Prompt: Param item = Cn1cc(-c2cccc(-c3ncc(-c4cnn(C)c4)c(NC4CC5(CC(N)C5)C4)n3)c2)cn1 (stereo not shown) [Example 65] ; retrieve measured IC50.
Response: < 100 nM
